Some sequences, each annotated with its measured % cleavage uPA t = 15 min.
Target: uPA (Homo sapiens)
Test: FRET peptide cleavage efficiency with uPA
Format: biochemical
Conditions: t = 15 min; 200 uM linker, 1 ug/ml protease, 37° C., buffer A pH 8.5
Square brackets hold non-standard residues; d marks the D form. Ends that are not written are not given here. Tyr(3-NO2) = N[C@@H](Cc1ccc(O)c([N+](=O)[O-])c1)C(=O)O; 2Abz = Nc1ccccc1C(=O)O
Kindly answer with a numeric value in %, unit omitted.

Some sequences with recorded % cleavage uPA t = 15 min:
ISQYSSAT ([2Abz]ISQYSSAT[Tyr(3-NO2)]-NH2) [LNK070]	0
RGRRPLGLAGGSG ([2Abz]RGRRPLGLAGGSG[Tyr(3-NO2)]-NH2) [LNK051]	0

Which % cleavage uPA t = 15 min is listed for KWGKSAPLGLAG ([2Abz]KWGKSAPLGLAG[Tyr(3-NO2)]-NH2) [LNK026] ?
0

Values were extracted from patent US20240400614A1.
